Each item that follows carries a reported pIC50.
Test system: MYB
Assay: Splicing RT-qPCR assay, MYB mRNA canonical junction (CJ) and alternative junction (AJ)
Assay type: cell-based, human
Details: Homo sapiens, 24 h, decrease in CJ mRNA; A673 or K562 cells, 24 hours treatment, RT-qPCR; read-out: MYB CJ IC50
pIC50: −log10 of the molar value.
quantity: pIC50

[[record]]
compound = "CC1(C)CC(Nc2ccc(-c3ccc(-c4cn[nH]c4)c4ncsc34)nn2)CC(C)(C)N1 [Compound 186]"
test_value = "6.00 to 7.00"

[[record]]
compound = "CNC1CCN(c2ncc(-c3ccc(-c4cn[nH]c4)c4ncsc34)nn2)C1 (centres unmarked) [Compound 412]"
test_value = "< 5.00"

[[record]]
compound = "c1nc2c(-c3cn[nH]c3)ccc(-c3ccc(O[C@@H]4C[C@H]5CCC[C@@H](C4)N5)nn3)c2[nH]1 [Compound 219]"
test_value = "6.00 to 7.00"

[[record]]
compound = "c1nc2c(-c3cn[nH]c3)ccc(-c3ccc(N[C@@H]4C[C@H]5CCC[C@@H](C4)N5)nn3)c2s1 [Compound 215]"
test_value = "6.00 to 7.00"

[[record]]
compound = "Cn1cc(-c2ccc(-c3ccc(OC4CC(C)(C)NC(C)(C)C4)nn3)c3[nH]ncc23)nn1 [Compound 325]"
test_value = "5.00 to 6.00"

[[record]]
compound = "CN(c1ccc(-c2ccc(-c3cn[nH]c3)c3ccsc23)nn1)C1CC(C)(C)NC(C)(C)C1 [Compound 131]"
test_value = "< 5.00"

[[record]]
compound = "c1nc2c(-c3cn[nH]c3)ccc(-c3ccc(N4CCC5(CCN5)C4)nn3)c2s1 (centres unmarked) [Compound 265]"
test_value = "5.00 to 6.00"

[[record]]
compound = "CCN(c1ccc(-c2ccc(-c3cn[nH]c3)c3ncsc23)nn1)C1CCNCC1 [Compound 224]"
test_value = "5.00 to 6.00"

[[record]]
compound = "CCN(c1ccc(-c2ccc(-c3cn[nH]c3)c3cn[nH]c23)nn1)C1CC(C)(C)NC(C)(C)C1 [Compound 293]"
test_value = "5.00 to 6.00"

[[record]]
compound = "CN(c1ccc(-c2ccc(-c3cnn(C)n3)c3cn[nH]c23)nn1)C1CCNCC1 [Compound 315]"
test_value = "5.00 to 6.00"

[[record]]
compound = "c1n[nH]cc1-c1ccc(-c2ccc(N3CC[C@@]45CCN[C@@H]4CC[C@@H]35)nn2)c2[nH]ncc12 [Compound 304]"
test_value = "< 5.00"

[[record]]
compound = "c1n[nH]cc1-c1ccc(-c2ccc(N3CCNCC3)nn2)c2[nH]ncc12 [Compound 241]"
test_value = "< 5.00"

[[record]]
compound = "CN(c1ccc(-c2ccc(-c3cn[nH]c3)c3ncsc23)nn1)[C@H]1C[C@]2(C)CC[C@](C)(C1)N2 [Compound 204]"
test_value = "> 7.00"

[[record]]
compound = "FC1(F)C[C@@H]2C[C@@H](Oc3ccc(-c4ccc(-c5cn[nH]c5)c5cn[nH]c45)nn3)C[C@H]1N2 (stereo in doubt) [Compound 373]"
test_value = "5.00 to 6.00"

[[record]]
compound = "CN(c1ccc(-c2ccc(-c3ccc(=O)n(C)c3)c3scnc23)nn1)C1CC(C)(C)NC(C)(C)C1 [Compound 178]"
test_value = "5.00 to 6.00"

[[record]]
compound = "CC(C)(C)NC1CCN(c2ccc(-c3ccc(-n4cccn4)c4cn[nH]c34)nn2)C1 (centres unmarked) [Compound 310]"
test_value = "5.00 to 6.00"

[[record]]
compound = "COc1cc(-c2ccc(-c3ccc(N(C)C4CC(C)(C)NC(C)(C)C4)nn3)c3scnc23)ccn1 [Compound 280]"
test_value = "5.00 to 6.00"

[[record]]
compound = "c1nc2c(-c3cn[nH]c3)ccc(-c3ccc(N4CCC45CCNC5)nn3)c2s1 (centres unmarked) [Compound 277]"
test_value = "< 5.00"

[[record]]
compound = "c1nc2c(-c3cn[nH]c3)ccc(-c3ccc(OC4CCNCC4)nn3)c2s1 [Compound 183]"
test_value = "6.00 to 7.00"

[[record]]
compound = "Cc1n[nH]c2c(-c3ccc(N(C)[C@@H]4C[C@H]5CC[C@@H](C4)N5)nn3)ccc(-c3cnn(C)n3)c12 [Compound 375]"
test_value = "< 5.00"

[[record]]
compound = "c1nc2c(-c3cn[nH]c3)ccc(-c3ccc(N4CCC5(CC4)CNC5)nn3)c2s1 [Compound 188]"
test_value = "< 5.00"

[[record]]
compound = "CN(c1ccc(-c2ccc(-c3cn[nH]c3)c3nn[nH]c23)nn1)[C@@H]1C[C@H]2CC[C@@H](C1)N2 [Compound 118]"
test_value = "< 5.00"

[[record]]
compound = "c1nc2c(-c3cn[nH]c3)ccc(-c3ccc(N4CCC5(CCCNC5)C4)nn3)c2s1 (centres unmarked) [Compound 191]"
test_value = "< 5.00"


###

Test system: HTT
Assay: Splicing RT-qPCR assay, HTT mRNA canonical junction (CJ) and alternative junction (AJ)
Assay type: cell-based, human
Details: Homo sapiens, RT-qPCR panel, canonical junction mRNA; compound concentration having 50% response in CJ decrease; read-out: HTT IC50 (decrease in CJ mRNA levels)
quantity: IC50

[[record]]
molecule = "c1nc2c(-c3cn[nH]c3)ccc(-c3ccc(N4CCC45CCCNC5)nn3)c2s1 (stereo not drawn)"
study_target = "HTT"
test_value = "1 to 10 µM"

[[record]]
molecule = "c1n[nH]cc1-c1ccc(-c2ccc(N3CCC(NC4CC4)C3)nn2)c2[nH]ncc12 (stereo not drawn)"
study_target = "HTT"
test_value = "> 10 µM"

[[record]]
molecule = "CN(c1ncc(-c2ccc(-c3cn[nH]c3)c3ncsc23)nn1)[C@@H]1C[C@H]2CCC[C@@H](C1)N2"
study_target = "HTT"
test_value = "< 0.1 µM"


###

System: Target C
Assay: HiBiT protein abundance assay, Target C
Format: cell-based, human
Settings: Homo sapiens, K562, 24 h, Table 13A, modified K562 cells
quantity: IC50

[[record]]
compound = "Fc1cc(-c2ccc(OC3CC4CC(F)(F)C(C3)N4)nn2)c2[nH]ncc2c1-c1cn[nH]c1 (stereo not shown) [Compound 313]"
study_target = "Target C"
test_value = "100 to 1000 nM"

[[record]]
compound = "CN(c1ccc(-c2ccc(-c3cn[nH]c3)c3nn[nH]c23)nn1)[C@@H]1C[C@H]2CC[C@@H](C1)N2 [Compound 118]"
study_target = "Target C"
test_value = "1000 to 10000 nM"

[[record]]
compound = "CN(c1ccc(-c2ccc(-c3cn[nH]c3)c3[nH]ncc23)nn1)[C@@H]1C[C@H]2CC[C@@H](C1)N2 [Compound 329]"
study_target = "Target C"
test_value = "> 10000 nM"

[[record]]
compound = "Cn1ncc(-c2ccc(-c3ccc(N[C@@H]4C[C@H]5CC[C@@H](C4)N5)nn3)c3[nH]ncc23)n1 [Compound 322]"
study_target = "Target C"
test_value = "< 100 nM"

[[record]]
compound = "c1nc2c(-c3cn[nH]c3)ccc(-c3ccc(N4C[C@H]5CNC[C@H]5C4)nn3)c2s1 [Compound 282]"
study_target = "Target C"
test_value = "> 10000 nM"

[[record]]
compound = "COc1cc(-c2ccc(-c3ccc(N(C)[C@@H]4C[C@H]5CC[C@@H](C4)N5)nn3)c3[nH]ncc23)ccn1 [Compound 364]"
study_target = "Target C"
test_value = "< 100 nM"

[[record]]
compound = "CC(C)(C)[C@H]1CN(c2ncc(-c3ccc(-n4cccn4)c4[nH]ncc34)nn2)CCN1 [Compound 581]"
study_target = "Target C"
test_value = "< 100 nM"

[[record]]
compound = "c1n[nH]cc1-c1ccc(-c2ccc(S[C@@H]3C[C@H]4CC[C@@H](C3)N4)nn2)c2[nH]ncc12 [Compound 221]"
study_target = "Target C"
test_value = "1000 to 10000 nM"

[[record]]
compound = "CN1C[C@@H]2[C@H](C1)[C@H]2N(C)c1ccc(-c2ccc(-c3cn[nH]c3)c3ncsc23)nn1 [Compound 235]"
study_target = "Target C"
test_value = "100 to 1000 nM"

[[record]]
compound = "c1cnn(-c2ccc(-c3cnc(N[C@@H]4C[C@H]5CCC[C@@H](C4)N5)nn3)c3cn[nH]c23)c1 [Compound 561]"
study_target = "Target C"
test_value = "< 100 nM"

[[record]]
compound = "Cc1cc(-c2ccc(-c3ccc(O[C@@H]4C[C@H]5CC[C@@H](C4)N5)nn3)c3scnc23)ccn1 [Compound 349]"
study_target = "Target C"
test_value = "1000 to 10000 nM"

[[record]]
compound = "CN(c1ccc(-c2ccc(-c3ccc(=O)n(C)c3)c3cn[nH]c23)nn1)[C@@H]1C[C@H]2CC[C@@H](C1)N2 [Compound 365]"
study_target = "Target C"
test_value = "1000 to 10000 nM"

[[record]]
compound = "CN(c1ncc(-c2ccc(-c3cn[nH]c3)c3ncsc23)nn1)[C@@H]1C[C@H]2CCC[C@@H](C1)N2 [Compound 449]"
study_target = "Target C"
test_value = "< 100 nM"

[[record]]
compound = "CN(c1ccc(-c2ccc(-c3cn[nH]c3)c3cn[nH]c23)nn1)[C@@H]1C[C@H]2CC(F)(F)[C@@H](C1)N2 (stereo in doubt) [Compound 376]"
study_target = "Target C"
test_value = "100 to 1000 nM"

[[record]]
compound = "c1cnn(-c2ccc(-c3cnc(N4CCNC5(CC5)C4)nn3)c3cn[nH]c23)c1 [Compound 577]"
study_target = "Target C"
test_value = "> 10000 nM"

[[record]]
compound = "CN(C)[C@H]1[C@@H]2CN(c3ccc(-c4ccc(-c5cn[nH]c5)c5ncsc45)nn3)C[C@@H]21 [Compound 285]"
study_target = "Target C"
test_value = "> 10000 nM"

[[record]]
compound = "CC1(C)CC(Oc2ccc(-c3ccc(-c4cn[nH]c4)c4cn[nH]c34)nn2)CCN1 (stereo not shown) [Compound 220]"
study_target = "Target C"
test_value = "> 10000 nM"

[[record]]
compound = "c1nc2c(-c3cn[nH]c3)ccc(-c3ccc(N4CCC45CCNCC5)nn3)c2s1 [Compound 266]"
study_target = "Target C"
test_value = "> 10000 nM"

[[record]]
compound = "CN(c1ncc(-c2ccc(-c3cn[nH]c3)c3ncsc23)nn1)[C@@H]1C[C@H]2CC[C@@H](C1)N2 [Compound 420]"
study_target = "Target C"
test_value = "< 100 nM"

